# System: HEK293 WT BDD-FVIII-Gluc
# test_protocol: secreted FVIII-Gluc luciferase Z-score vs DMSO control; higher = more FVIII-Gluc secretion
# measurement_context: 5 µM
Listed next: entries and their corresponding secreted FVIII-Gluc luciferase Z-score.
readout: secreted FVIII-Gluc luciferase Z-score

compound="CCC1(O)C(=O)OCc2c1cc1n(c2=O)Cc2cc3ccccc3nc2-1 (stereo unspecified)" assay_target="HEK293 WT BDD-FVIII-Gluc" recorded_measurement=-3.23
compound="COc1ccc(CC2NCC(O)C2OC(C)=O)cc1 (stereo unspecified)" assay_target="HEK293 WT BDD-FVIII-Gluc" recorded_measurement=-4.62
compound="O=CN1CCCCC1C1CC[C@H]2CCCCN2C1 (stereo partly specified)" assay_target="HEK293 WT BDD-FVIII-Gluc" recorded_measurement=0.233
compound="C=C[C@H]1CN2CCC1CC2c1[nH]c2ccccc2c1CCO (stereo partly specified)" assay_target="HEK293 WT BDD-FVIII-Gluc" recorded_measurement=0.502
compound="CC(C)[C@H]1C(=O)N2CCC[C@H]2[C@]2(O)OC(NC(=O)[C@@H]3C=C4c5cccc6[nH]cc(c56)C[C@H]4N(C)C3)(C(C)C)C(=O)N12 (stereo partly specified)" assay_target="HEK293 WT BDD-FVIII-Gluc" recorded_measurement=0.939
compound=CN(C)[C@@H]1C(=O)C(C(N)=O)=C(O)[C@@]2(O)C(=O)C3=C(O)c4c(O)cccc4[C@@](C)(O)[C@H]3[C@H](O)[C@@H]12 assay_target="HEK293 WT BDD-FVIII-Gluc" recorded_measurement=0.919
compound="CN1C[C@@H](CO)C=C2c3cccc4[nH]cc(c34)CC21 (stereo partly specified)" assay_target="HEK293 WT BDD-FVIII-Gluc" recorded_measurement=0.731
compound=Cc1cc2c(C(C)C)c(O)c(O)c(C=O)c2c(O)c1-c1c(C)cc2c(C(C)C)c(O)c(O)c(C=O)c2c1O assay_target="HEK293 WT BDD-FVIII-Gluc" recorded_measurement=1.13
compound=COc1ccc2c(c1O)-c1c(OC)c(OC)cc3c1[C@H](C2)N(C)CC3 assay_target="HEK293 WT BDD-FVIII-Gluc" recorded_measurement=0.32
compound=C=C1C/C(=C/C)C(=O)O[C@@H]2CCN3CC=C(COC(=O)[C@]1(C)O)[C@H]23 assay_target="HEK293 WT BDD-FVIII-Gluc" recorded_measurement=0.649
compound=CC(C)C[C@H]1C(=O)N2CCC[C@H]2[C@]2(O)O[C@](NC(=O)[C@@H]3C=C4c5cccc6[nH]cc(c56)C[C@H]4N(C)C3)(C(C)C)C(=O)N12 assay_target="HEK293 WT BDD-FVIII-Gluc" recorded_measurement=0.241
